Target: FAK (Homo sapiens, UniProt Q05397)
Construct: purchased Carna Biosciences
Sequence (Q05397 whole entry): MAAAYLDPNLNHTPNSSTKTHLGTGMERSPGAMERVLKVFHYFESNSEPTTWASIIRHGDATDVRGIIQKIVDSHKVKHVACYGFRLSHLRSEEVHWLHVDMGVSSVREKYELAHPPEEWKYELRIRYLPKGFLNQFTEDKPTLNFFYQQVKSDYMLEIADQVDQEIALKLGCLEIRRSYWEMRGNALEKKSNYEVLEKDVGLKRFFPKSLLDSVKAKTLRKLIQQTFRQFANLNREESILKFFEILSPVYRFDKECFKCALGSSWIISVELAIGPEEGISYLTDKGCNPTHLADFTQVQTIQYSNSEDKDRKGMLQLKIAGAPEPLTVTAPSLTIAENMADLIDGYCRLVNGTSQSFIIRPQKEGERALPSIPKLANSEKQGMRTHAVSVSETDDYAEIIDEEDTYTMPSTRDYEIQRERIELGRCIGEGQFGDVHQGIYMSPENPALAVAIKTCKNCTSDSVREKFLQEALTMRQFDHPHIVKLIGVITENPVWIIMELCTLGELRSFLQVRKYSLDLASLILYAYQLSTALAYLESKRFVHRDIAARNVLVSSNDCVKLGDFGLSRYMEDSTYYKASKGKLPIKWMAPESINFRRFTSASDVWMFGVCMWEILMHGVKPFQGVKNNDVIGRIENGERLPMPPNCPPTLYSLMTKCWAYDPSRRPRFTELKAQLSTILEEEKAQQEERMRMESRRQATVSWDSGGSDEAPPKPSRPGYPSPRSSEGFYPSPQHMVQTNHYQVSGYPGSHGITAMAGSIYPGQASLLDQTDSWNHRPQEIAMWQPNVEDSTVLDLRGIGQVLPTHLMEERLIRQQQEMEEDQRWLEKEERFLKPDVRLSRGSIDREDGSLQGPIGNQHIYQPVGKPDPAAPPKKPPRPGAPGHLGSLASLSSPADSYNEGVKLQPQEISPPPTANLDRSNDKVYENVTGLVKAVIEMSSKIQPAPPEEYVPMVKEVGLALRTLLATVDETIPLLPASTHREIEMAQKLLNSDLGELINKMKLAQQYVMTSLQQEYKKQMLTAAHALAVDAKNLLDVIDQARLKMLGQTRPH
Test: Kinase panel profiling at 1 µmol/L (mobility shift assay, Carna)
Type: biochemical
Conditions: 1 µmol/L of BTK inhibitor
Measurement type: Percentage inhibition of kinase enzyme activity
Please don't drop the unit; write it after the number.

| Smiles repr | Experimental result |
| --- | --- |
| C=CC(=O)N1CCC[C@@H](n2nc(-c3ccc(Oc4ccccc4)cc3)c3c(N)ncnc32)C1 | 5.04% |
| CC#CC(=O)N1CCC[C@H]1c1nc(-c2ccc(C(=O)Nc3ccccn3)cc2)c2c(N)nccn12 | -1.39% |
| O=C(c1ccc(Oc2ccccc2)cc1Cl)c1c[nH]c2ncnc(N[C@@H]3CC[C@@H](CO)OC3)c12 | 100.03% |
| COc1ccc(F)cc1C(=O)NCc1ccc(-c2nn([C@@H](C)C(F)(F)F)c(N)c2C(N)=O)cc1 | 0.91% |

Turning to the following compound.
Recorded result, "C=CC(=O)N1CCC([C@@H]2CCNc3c(C(N)=O)c(-c4ccc(Oc5ccccc5)cc4)nn32)CC1" , Percentage inhibition of kinase enzyme activity: 0.0146%

Values compiled from paper PMC12586182.
